Please go through the items and note down their pIC50.
measured-target: PDGF-receptor beta enzyme comprising the tyrosine kinase domain (Homo sapiens, UniProt P09619)
Construct: from amino acid 545 to 1106 of GenBank Access NO: AAA36427
Sequence (P09619 545-1106): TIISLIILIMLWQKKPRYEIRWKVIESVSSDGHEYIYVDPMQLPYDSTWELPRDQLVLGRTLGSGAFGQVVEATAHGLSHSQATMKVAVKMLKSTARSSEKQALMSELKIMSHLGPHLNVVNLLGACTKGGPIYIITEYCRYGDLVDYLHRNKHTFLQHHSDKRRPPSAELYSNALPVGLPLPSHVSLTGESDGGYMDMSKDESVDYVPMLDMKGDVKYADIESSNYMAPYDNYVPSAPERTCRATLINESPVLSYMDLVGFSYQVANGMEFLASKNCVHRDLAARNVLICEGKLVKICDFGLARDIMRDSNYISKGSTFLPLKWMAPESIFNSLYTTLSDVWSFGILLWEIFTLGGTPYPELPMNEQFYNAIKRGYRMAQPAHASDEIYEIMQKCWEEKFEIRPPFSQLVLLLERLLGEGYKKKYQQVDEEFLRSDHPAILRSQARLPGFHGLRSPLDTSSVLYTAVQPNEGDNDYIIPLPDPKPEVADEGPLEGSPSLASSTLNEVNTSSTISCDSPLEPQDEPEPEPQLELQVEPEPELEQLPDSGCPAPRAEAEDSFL
test-name: Inhibition of PDGF-receptor kinase activity (cell-free, PLC1 peptide, 33P Flashplate)
Type: biochemical
applied-conditions: PDGF-R kinase activity; read-out: IC50
Method: PDGF-R kinase activity was assayed by its ability to phosphorylate one of its target proteins, PLCγ, in a cell-free system, in particular, a PLC1 peptide comprising the tyrosine residue where the phosphorylation occurs was used for the assay. […] In order to test the potency of inhibition of present compounds, an IC50 for an individual compound was measured using the above procedure. […]
One number for each entry, as −log10 of the molar value.

*Q* Give the measured pIC50 of COc1ccc(OC)c(Nc2[nH]nc3c2Cc2ccc(OC)cc2-3)c1 [Compound 174] .
*A* 6.46

*Q* Give the measured pIC50 of COc1cc2c(cc1OCCCN(C)C)Cc1c-2n[nH]c1Nc1cccc(F)c1 [Compound 199] .
*A* 8.23

*Q* Give the measured pIC50 of COc1cc2c(cc1OC)C(C)c1c-2n[nH]c1Nc1cccc(OCc2ccccc2)c1 (centres unmarked) [Compound 254] .
*A* 6.74

*Q* Give the measured pIC50 of COc1cc2c(cc1OC)-c1n[nH]c(Nc3ccccc3C(C)C)c1C2 [Compound 57] .
*A* 5.67

*Q* Give the measured pIC50 of COc1cc2c(cc1OC)-c1n[nH]c(Nc3cccc(C(=O)O)c3)c1C2 [Compound 115] .
*A* 5.51

*Q* Give the measured pIC50 of COc1ccc2c(c1)-c1n[nH]c(Nc3cccc(F)c3)c1C2 [Compound 172] .
*A* 7.88

*Q* Give the measured pIC50 of COc1ccc(Nc2[nH]nc3c2Cc2c(C)cccc2-3)c(OC)c1 [Compound 102] .
*A* 5.47

*Q* Give the measured pIC50 of CCOC(=O)Cn1nc2c(c1Nc1cccc(F)c1)Cc1cc(OC)c(OC)cc1-2 [Compound 510] .
*A* 4.57

For the 5 compounds below, give their pIC50 values.
1. COc1ccc(Nc2[nH]nc3c2Cc2c(OC)cccc2-3)c(OC)c1 [Compound 148]
2. CCOc1cc2c(cc1OCCCO)Cc1c-2n[nH]c1Nc1cccnc1 [Compound 383]
3. OCCCOc1cc2c(cc1OCCCO)-c1n[nH]c(Nc3cccc(F)c3)c1C2 [Compound 398]
4. Clc1cccc(Nc2[nH]nc3c2Cc2cc4c(cc2-3)OCO4)c1 [Compound 128]
5. COc1cc2c(cc1OCC(O)CN1CCCC1)Cc1c-2n[nH]c1NCc1ccccc1Cl (centres unmarked) [Compound 396]

*A*
5.07
7.60
8.17
7.22
8.29

For the 4 compounds below, give their pIC50 values.
1. COc1cc2c(cc1OC)-c1nn([C@@H]3O[C@H](C(=O)O)[C@@H](O)[C@H](O)[C@H]3O)c(Nc3cccc(F)c3)c1C2 [Compound 529]
2. CCOc1cccc(Nc2[nH]nc3c2C(C)c2cc(OC)c(OC)cc2-3)c1 (single isomer, unassigned) [Compound 569]
3. OCC(O)COc1cccc2c1Cc1c-2n[nH]c1Nc1cccc(Br)c1 (centres unmarked) [Compound 468]
4. Clc1cccc(Cl)c1CNc1[nH]nc2c1Cc1c(OCCCN3CCOCC3)cccc1-2 [Compound 415]

*A*
4.97
5.29
7.32
7.59
